Assay: Pharmacokinetic profile in mouse plasma
Assay type: in vivo
Conditions: ip; mouse plasma, single 30 mg/Kg intraperitoneal dose; read-out: Terminal t1/2 (converted)
Procedure: The selective inhibition of mTORC1 activation by NR1 in vitro and in cell-based systems prompted us to evaluate the effect of this compound on mTORC1 activity in vivo. […] After a 16 h fast, the animals were treated with either vehicle or 30 mg kg^−1 NR1 and allowed to re-feed for 2 h before sacrifice and tissue collection. mTORC1 activity was measured by quantification of ^S240/244pS6 by Western blot analysis with a specific antibody. […]
property: half-life (h)

                                   compound  unit_string  value_observed
0  CN(C)C(=O)c1ccc(Cn2c(C(=O)O)cc3c(Br)cc(Sc4ccc(Cl)c(Cl)c4)cc32)cc1 [NR1]            h            2.24

---

Assay: Pharmacokinetic profile in mouse plasma
Type: in vivo
Conditions: ip; mouse plasma, single 30 mg/Kg intraperitoneal dose
property: AUC(0-inf) (ng·h/mL)

>>> print(df.to_string())
                                        smi  value_observed
0  CN(C)C(=O)c1ccc(Cn2c(C(=O)O)cc3c(Br)cc(Sc4ccc(Cl)c(Cl)c4)cc32)cc1           23500

---

Biological target: human Rheb protein (1–169) (Homo sapiens, UniProt Q15382)
Sequence (Q15382 1-169): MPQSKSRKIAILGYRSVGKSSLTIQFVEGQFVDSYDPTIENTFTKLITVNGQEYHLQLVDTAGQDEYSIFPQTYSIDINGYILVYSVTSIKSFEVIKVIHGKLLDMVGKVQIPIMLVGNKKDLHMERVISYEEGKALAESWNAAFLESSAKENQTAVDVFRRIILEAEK
pKd: −log10 of the molar value.
property: pKd

>>> print(df.to_string())
                                        smi                               measured_on  value_observed
0  CN(C)C(=O)c1ccc(Cn2c(C(=O)O)cc3c(Br)cc(Sc4ccc(Cl)c(Cl)c4)cc32)cc1  human Rheb protein (1–169) (Homo sapiens, UniProt Q15382)            5.82

---

Experiment: Pharmacokinetic profile in mouse plasma
Type: in vivo
Settings: ip; mouse plasma, single 30 mg/Kg intraperitoneal dose
Description: The selective inhibition of mTORC1 activation by NR1 in vitro and in cell-based systems prompted us to evaluate the effect of this compound on mTORC1 activity in vivo. […] After a 16 h fast, the animals were treated with either vehicle or 30 mg kg^−1 NR1 and allowed to re-feed for 2 h before sacrifice and tissue collection. mTORC1 activity was measured by quantification of ^S240/244pS6 by Western blot analysis with a specific antibody. […]
property: AUC(0-t)

>>> print(df.to_string())
                                   compound  value_observed
0  CN(C)C(=O)c1ccc(Cn2c(C(=O)O)cc3c(Br)cc(Sc4ccc(Cl)c(Cl)c4)cc32)cc1 [NR1]   23500 ng·h/mL

---

Target: Rheb-dependent mTORC1 kinase activity (Homo sapiens)
Construct: using full-length Rheb and mTORC1 purified from mammalian cells via a Flag-Raptor handle; made in house; host or cells: HA-GST-Rheb: Freestyle 293-F cells transfected with pRK5-HA-GST-Rheb; mTORC1: HEK-293E cells stably expressing FLAG-Raptor
Sequence (Q15382 1-181 limits assumed): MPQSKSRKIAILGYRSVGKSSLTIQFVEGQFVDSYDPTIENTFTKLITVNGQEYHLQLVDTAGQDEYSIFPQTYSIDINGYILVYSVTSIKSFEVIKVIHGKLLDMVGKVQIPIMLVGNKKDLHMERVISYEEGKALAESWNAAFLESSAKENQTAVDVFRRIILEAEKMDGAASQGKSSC
Test: Rheb-dependent mTORC1 in vitro kinase assay (Rheb-IVK)
Type: biochemical
Conditions: LanthaScreen TR-FRET format, T46p4E-BP1 antibody; read-out: IC50 in the Rheb-IVK
property: IC50 (nM)

>>> print(df.to_string())
                                   molecule  unit_string  value_observed
0  CCC(=O)N1CCN(c2ccc(-n3c(=O)ccc4cnc5ccc(-c6cnc7ccccc7c6)cc5c43)cc2C(F)(F)F)CC1 [Torin-1]           nM               2

---

Tested on: T389pS6K1 (mTORC1 activity) in MCF-7 cells
Assay: T389pS6K1 AlphaLISA assay in MCF-7 cells
Assay type: cell-based, human
Details: Homo sapiens, MCF7; inhibition of S6K phosphorylation in cells; read-out: potency in cellular assays
Description: We next evaluated the activity of NR1 in cell culture. […] Evaluation of NR1 in MCF-7 under replete conditions. […] The indicated phosphoproteins were detected using AlphaLISA assays for T389pS6K1 (reflecting mTORC1 activity) and S473pAKT (reflecting mTORC2 activity). […] AlphaLISA assays. […] The AlphaLISA protocol was performed in 384-well plates as instructed by Perkin Elmer, and the plates were read on an EnVision plate reader. […]
property: IC50 (µM)

>>> print(df.to_string())
                                   compound  value_observed
0  CN(C)C(=O)c1ccc(Cn2c(C(=O)O)cc3c(Br)cc(Sc4ccc(Cl)c(Cl)c4)cc32)cc1 [NR1]               2

---

Test: Pharmacokinetic profile in mouse plasma
Assay type: in vivo
Details: ip; mouse plasma, single 30 mg/Kg intraperitoneal dose
property: Tmax

                                   molecule  property  value_observed
0  CN(C)C(=O)c1ccc(Cn2c(C(=O)O)cc3c(Br)cc(Sc4ccc(Cl)c(Cl)c4)cc32)cc1 [NR1]      Tmax          15 min

// data source = paper PMC5803267
